system-under-test: Nucleic Acid
protocol-details: Binding affinity to HIV-1 TAR RNA by FRET assay
Type: nucleic-acid assay, Human immunodeficiency virus 1
Consider the following compounds; for each one, report its Kd.
One number for each entry, in nM.

record-smiles	observed-property	numeric-value
Cc1cn(CC(=O)NCCCC[C@H](N)C(=O)NC[C@H]2O[C@H](O[C@H]3[C@H](O)[C@@H](O)[C@H](N)C[C@@H]3N)[C@H](N)[C@@H](O)[C@@H]2O)c(=O)[nH]c1=O	Kd	860
Nc1ccn(CC(=O)NCCCC[C@H](N)C(=O)NC[C@H]2O[C@H](O[C@H]3[C@H](O)[C@@H](O)[C@H](N)C[C@@H]3N)[C@H](N)[C@@H](O)[C@@H]2O)c(=O)n1	Kd	1400
Nc1nc2c(ncn2CC(=O)NCCCC[C@H](N)C(=O)NC[C@H]2O[C@H](O[C@H]3[C@H](O)[C@@H](O)[C@H](N)C[C@@H]3N)[C@H](N)[C@@H](O)[C@@H]2O)c(=O)[nH]1	Kd	240

Note: attention shifts to another entry.
Short answer please: Kd, Nucleic Acid, entry Nc1ncnc2c1ncn2CC(=O)NCCCC[C@H](N)C(=O)NC[C@H]1O[C@H](O[C@H]2[C@H](O)[C@@H](O)[C@H](N)C[C@@H]2N)[C@H](N)[C@@H](O)[C@@H]1O
740

====

protocol-details: Binding affinity to HIV-1 RRE RNA by fluorescence anisotropy
Parameters: species or system Human immunodeficiency virus 1
pKd: −log10 of the molar value.
Would you please tag the item t when its pKd is 6 or above, and f when it is below?

Illustrative cases are given below, each with its answer.
record-smiles	assigned-category
Nc1nc2c(ncn2CC(=O)NCCCC[C@H](N)C(=O)NC[C@H]2O[C@H](O[C@H]3[C@H](O)[C@@H](O)[C@H](N)C[C@@H]3N)[C@H](N)[C@@H](O)[C@@H]2O)c(=O)[nH]1	t
NCCCC[C@H](N)C(=O)NC[C@H]1O[C@H](O[C@H]2[C@H](O)[C@@H](O)[C@H](N)C[C@@H]2N)[C@H](N)[C@@H](O)[C@@H]1O	f
Nc1ccn(CC(=O)NCCCC[C@H](N)C(=O)NC[C@H]2O[C@H](O[C@H]3[C@H](O)[C@@H](O)[C@H](N)C[C@@H]3N)[C@H](N)[C@@H](O)[C@@H]2O)c(=O)n1	t

Test whether the compound Nc1ncnc2c1ncn2CC(=O)NCCCC[C@H](N)C(=O)NC[C@H]1O[C@H](O[C@H]2[C@H](O)[C@@H](O)[C@H](N)C[C@@H]2N)[C@H](N)[C@@H](O)[C@@H]1O records pKd of 6 or higher.
t

# bool: pKd of Cc1cn(CC(=O)NCCCC[C@H](N)C(=O)NC[C@H]2O[C@H](O[C@H]3[C@H](O)[C@@H](O)[C@H](N)C[C@@H]3N)[C@H](N)[C@@H](O)[C@@H]2O)c(=O)[nH]c1=O >= 6
t

Assess whether reported pKd for NC[C@H]1O[C@H](O[C@H]2[C@H](O)[C@@H](O)[C@H](N)C[C@@H]2N)[C@H](N)[C@@H](O)[C@@H]1O sits at 6 or higher.
f
